Tested on: HeLa Kyoto;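 further: synchronized HeLa Kyoto cells (double thymidine block for G1/S, nocodazole release for mitosis), protein amounts in NP-40 versus SDS lysates quantified by mass spectrometry, three biological replicates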
experiment: solubility change mitosis vs G1/S (difference of NP-40 vs SDS log2 ratios) (log2 ratio difference); higher = more soluble in mitosis
quantity-name: solubility change mitosis (log2)
Could you keep your reply to the number by itself?

Examples with their reported solubility change mitosis (log2) follow.
MAAMRKALPRRLVGLASLRAVSTSSMGTLPKRVKIVEVGPRDGLQNEKNIVSTPVKIKLIDMLSEAGLSVIETTSFVSPKWVPQMGDHTEVLKGIQKFPGINYPVLTPNLKGFEAAVAAGAKEVVIFGAASELFTKKNINCSIEESFQRFDAILKAAQSANISVRGYVSCALGCPYEGKISPAKVAEVTKKFYSMGCYEISLGDTIGVGTPGIMKDMLSAVMQEVPLAALAVHCHDTYGQALANTLMALQMGVSVVDSSVAGLGGCPYAQGASGNLATEDLVYMLEGLGIHTGVNLQKLLEAGNFICQALNRKTSSKVAQATCKL [HMGCL] :: -0.047
MVSHSELRKLFYSADAVCFDVDSTVIREEGIDELAKICGVEDAVSEMTRRAMGGAVPFKAALTERLALIQPSREQVQRLIAEQPPHLTPGIRELVSRLQERNVQVFLISGGFRSIVEHVASKLNIPATNVFANRLKFYFNGEYAGFDETQPTAESGGKGKVIKLLKEKFHFKKIIMIGDGATDMEACPPADAFIGFGGNVIRQQVKDNAKWYITDFVELLGELEE [PSPH] :: -0.049

Consider the sequence MSGGLAPSKSTVYVSNLPFSLTNNDLYRIFSKYGKVVKVTIMKDKDTRKSKGVAFILFLDKDSAQNCTRAINNKQLFGRVIKASIAIDNGRAAEFIRRRNYFDKSKCYECGESGHLSYACPKNMLGEREPPKKKEKKKKKKAPEPEEEIEEVEESEDEGEDPALDSLSQAIAFQQAKIEEEQKKWKPSSGVPSTSDDSRRPRIKKSTYFSDEEELSD [ZCRB1] and give its measured solubility change mitosis (log2).
0.122

Origin of the recorded values: the supplement of paper PMC5998384
